Test system: UACC-62 melanoma
assay.explanation: NCI tumour cell line growth inhibition, 48 h
observed.property: TGI

* CC(C)(C)OC(=O)NC1CC=CCC1NC(=O)OC(C)(C)C (stereo unspecified) | > 100 µM
* CCOC(=O)c1cc(/C=C/C(C)=C/C(=O)OC)oc1-c1ccccc1 | > 100 µM
* Cc1cccc(-n2c(C)nc3ccc(NC4OC(CO)C(O)C(O)C4O)cc3c2=O)c1 (stereo unspecified) | > 100 µM
* C[C@]12CCC3c4ccc(O)cc4CC[C@H]3C1CC(=O)N(N)C2=O (stereo partly specified) | > 100 µM
* COC(=O)/C=C/c1cnc2c(c1)oc(=O)n2CCc1ccccn1 | > 100 µM
* CC(NC(=O)C(OC(=O)C(C)NC(=O)OC(C)(C)C)C(C)C)C(=O)OC(C(=O)O)C(C)C (stereo unspecified) | > 100 µM
* NC(=O)c1cc(-c2ccc(-n3ccnc3)cc2)n[nH]c1=O | > 100 µM
* CCOC(=O)[C@@H]1C[C@H]1c1ccc(O)c(O)c1 | 34.9 µM
* NCCC(=O)N[C@H](Cc1cc(O)c(O)c(SCC(NC(=O)CC[C@H](N)C(=O)O)C(=O)NCC(=O)O)c1)C(=O)O (stereo partly specified) | > 50 µM
* CC(=O)OCCOCNC(=S)N/N=C/c1ccc2ccccc2n1 | 47.6 µM
* CCCCSN1C(=O)c2ccccc2C1=S | > 100 µM
* O=C1c2ccccc2C(=O)C2C1C1C(=O)c3ccccc3C(=O)C21 (stereo unspecified) | > 100 µM
* O=C(O)c1c[nH]c2c(=O)[nH]cnc12 | > 100 µM
* C=CCC1C(=O)C(C(=O)OC)N2CCc3c([nH]c4ccccc34)C12 (stereo unspecified) | > 100 µM
* Cc1ccc(N/C(Sc2ccccc2)=C(/C(Cl)=C(Cl)Cl)[N+](=O)[O-])c(C)c1 | 62.2 µM
* OC(CC(CC(O)(C(F)(F)Cl)C(F)(F)Cl)=NNc1ccccc1)(C(F)(F)Cl)C(F)(F)Cl | 4.95 µM
* O=C(c1ccco1)C1CC(c2ccc3ccccc3c2O)=NN1 (stereo unspecified) | > 100 µM
* C=CCn1c(=O)c2cnc(Nc3ccc(N4CCN(C)CC4)cc3)nc2n1-c1ccc2c(n1)[C@@](O)(CC)CC2 | 16.4 µM
* NC1=NC(c2ccc(Cl)cc2)N(c2ccc(S(=O)(=O)Nc3ncccn3)cc2)C(N)=N1 (stereo unspecified) | > 100 µM
* O=C1c2cccc3cc([N+](=O)[O-])cc(c23)C(=O)N1NC1=NCCN1 | > 100 µM
* O=C(CCN1CCOCC1)Nc1ccc(F)cc1F | > 100 µM

###

Overview of reported TGI across a group of compounds:
System: K-562 leukemia
assay.explanation: NCI tumour cell line growth inhibition, 48 h
observed.property: TGI

* Cn1c(NN)nc(-c2ccc([N+](=O)[O-])cc2)c(C#N)c1=O | > 100 µM
* O=C(COc1ccc(/C=C2\Oc3ccccc3C2=O)cc1)Nc1nccs1 | > 100 µM
* COC(=O)CCC(C)[C@H]1CCC2C3C(C[C@H](OC(C)=O)[C@@]21C)[C@@]1(C)CCC2(C[C@H]1C[C@H]3OC(C)=O)OOC1(CCC(C)CC1)OO2 (some centres undefined) | > 100 µM
* OC(CC(CC(O)(C(F)(F)Cl)C(F)(F)Cl)=NNc1ccccc1)(C(F)(F)Cl)C(F)(F)Cl | > 10 µM

Value source: PubChem BioAssay (NCI)
